# measurement target: H3 (A/Brisbane/10/2007) (influenza A virus H3 …)
# experiment: ELISA
So I've got a bunch of binders here, and I need their EC50 values.
Numeric only. Scale: nM

Prompt line: Please give the measured EC50 for this binder: VH 8 / VL 3 (antibody, V domains shown) VH: EVQLLESGGGLVQPGGSLRLSCAASGFTFSSYAMHWVRQAPGKGLEWVAVISYDANYKYYADSVKGRFTISRDNSKNTLYLQMNSLRAEDTAVYYCAKDSRLRSLLYFEWLSQGYFDYWGQGTLVTVSS VL: DIQMTQSPSSLSASVGDRVTITCRSSQSITFDYKNYLAWYQQKPGKAPKLLIYAASSLQSGVPSRFSGSGSGTDFTLTISSLQPEDFATYYCQQHYRTPPSFGQGTKVEIK
Response line: 0.0286

Prompt line: Please give the measured EC50 for this binder: VH 10 / VL 6 (antibody, V domains shown) VH: QVQLVQSGAEVKKPGSSVKVSCKASGFTFSTYAIHWVRQAPGQGLEWMGVISYDANYKYYAQKFQGRVTITRDNSKSTAYMELSSLRSEDTAVYYCARDSRLRSLLYFEWLSQGYFDYWGQGTTLTVSS VL: EIVMTQSPATLSVSPGERATLSCRSSQSITFDYKNYLAWYQQKPGQAPRLLIYWGSTRATGIPARFSGSGSGTEFTLTISSLQSEDFAVYYCQQHYRTPPSFGQGTKVEIK
Response line: 0.0695

Prompt line: Please give the measured EC50 for this binder: VH 8 / VL 7 (antibody, V domains shown) VH: EVQLLESGGGLVQPGGSLRLSCAASGFTFSSYAMHWVRQAPGKGLEWVAVISYDANYKYYADSVKGRFTISRDNSKNTLYLQMNSLRAEDTAVYYCAKDSRLRSLLYFEWLSQGYFDYWGQGTLVTVSS VL: EIVMTQSPATLSVSPGERATLSCRSSQSITFDYKNYLAWYQQKPGQAPRLLIYSASTRATGIPARFSGSGSGTEFTLTISSLQSEDFAVYYCQQHYRTPPSFGQGTKVEIK
Response line: 0.0356

Prompt line: Please give the measured EC50 for this binder: VH 3 / VL 6 (antibody, V domains shown) VH: QVQLVESGGGVVQPGRSLRLSCAASGFTFSTYAMHWVRQAPGKGLEWVAVISYDANYKYYADSVKGRFTISRDNSKNTLYLQMNSLRAEDTAVYYCAKDSQLRSLLYFEWLSQGYFDYWGQGTLVTVSS VL: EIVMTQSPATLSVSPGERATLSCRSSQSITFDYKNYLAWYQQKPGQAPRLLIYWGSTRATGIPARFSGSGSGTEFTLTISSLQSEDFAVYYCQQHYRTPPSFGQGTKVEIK
Response line: 0.0313

Prompt line: Please give the measured EC50 for this binder: VH 3 / VL 3 (antibody, V domains shown) VH: QVQLVESGGGVVQPGRSLRLSCAASGFTFSTYAMHWVRQAPGKGLEWVAVISYDANYKYYADSVKGRFTISRDNSKNTLYLQMNSLRAEDTAVYYCAKDSQLRSLLYFEWLSQGYFDYWGQGTLVTVSS VL: DIQMTQSPSSLSASVGDRVTITCRSSQSITFDYKNYLAWYQQKPGKAPKLLIYAASSLQSGVPSRFSGSGSGTDFTLTISSLQPEDFATYYCQQHYRTPPSFGQGTKVEIK
Response line: 0.0386
